# ASSAY: chemical genetic growth profiling, strain panel (AID 1159580);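 note: tested at 20 µM; growth read once vehicle control cultures reached saturation at 30 °C; 1 = growth at the plate median or of vehicle wells; lower values mean less growth of the strain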
# ASSAY SETUP: S. cerevisiae deletion strains, growth OD, locus YER123W, strain YCK3
In all, about 5,500 compounds went through this assay and about 2,000 (36%) were called active. About 18% were inconclusive and are not listed. Cut-off read from the data, not from the text of the source: active = normalized growth mostly below about 0.91 (no sharp cut-off); inconclusive = no clear call, values can overlap the other calls; inactive = mostly above about 0.92. The list shows a part of the results.
Lab note: assign the record to one of active, inactive

Known results for compounds:
> print(dat)
                                   compound  label.class
1       Cc1cc(-c2onc(C)c2C(=O)Sc2ccccc2)no1     inactive
2  N#C/C(N=Cc1cc(Cl)cc(Cl)c1O)=C(\C#N)N=Cc1cc(Cl)cc(Cl)c1O     inactive
3  N#Cc1ccc2[nH]cc(CCN(Cc3ccccc3)Cc3ccccc3)c2c1     inactive

Qu. // param item: O=C1Nc2ccccc2/C1=C\c1c[nH]c2ccccc12 ; yields the recorded call
Ans. active

Qu. Tell me the assay call for CCn1nc(C)cc1C(=O)Sc1cccc(Br)c1 please.
Ans. active

Qu. What did the test return for O=S(=O)(Nc1ccccc1Sc1c(Cl)cncc1Cl)c1ccc(Cl)cc1 ?
Ans. inactive

Qu. Entry N#Cc1nccnc1N1CCN(C(=O)Nc2cc(Cl)cc(Cl)c2)CC1 : call = ?
Ans. inactive

Qu. Status in this test for O=C(OCc1ccccc1Br)c1cc([N+](=O)[O-])cc([N+](=O)[O-])c1 ?
Ans. inactive

Qu. Tell me the assay call for O=C1Nc2ccccc2/C1=C\c1cccc2ccccc12 please.
Ans. inactive

---

# ASSAY: chemical genetic growth profiling, strain panel (AID 1159580)
# ASSAY SETUP: S. cerevisiae deletion strains, growth OD, locus YMR219W, strain ESC1, hits give low values
Among all 5,500 compounds or so, about 2,000 (36%) were called active. About 18% were inconclusive and are not listed. The list shows a part of the results.
List of normalized growth values.
Returns: the value as a bare number; no unit string appended.

The examples below pair each entry with its known result.
> print(dat)
                                    compound  measured.endpoint  value
 1        Cc1ccc(SC(=O)c2cccnc2Oc2ccccc2)cc1  normalized growth  0.993
 2         O=C1C(c2ccc(Br)cc2)=C(O)c2ccccc21  normalized growth  0.896
 3             NC(N)=NC(N)=Nc1cc(Cl)cc(Cl)c1  normalized growth   0.99
 4  N#Cc1c(Cl)cccc1N1CCC(C(=O)NC(=O)Nc2ccc(Cl)cc2)CC1  normalized growth   1.02
 5           COc1ccc(OC)c(CNC(=O)Cc2cccs2)c1  normalized growth  0.996
 6                 O=[N+]([O-])c1cnc2ccccn12  normalized growth   1.01
 7       Cc1nnsc1C(=O)O/N=C1/CCSc2ccc(F)cc21  normalized growth  0.988
 8         O=C(NCCCCO)OCC1c2ccccc2-c2ccccc21  normalized growth  0.995
 9  CC(C)(C)c1ccc(Oc2ncccc2NC(=O)c2ccccc2C(F)(F)F)cc1  normalized growth  0.999
10  CC1CC(=O)Nc2ccccc2N1C(=O)c1ccc([N+](=O)[O-])cc1 (stereo not drawn)  normalized growth   1.01

Qu. Give a short answer stating reported normalized growth for CCOC(=O)/C(C#N)=C/Nc1ccc2c(c1)OCO2 .
Ans. 0.981

Qu. Indicate its recorded normalized growth; the compound in question is CCOC(=O)c1nnc2cc(C)nn2c1C
Ans. 1

Qu. Give normalized growth for COC(OC)c1ccc(C#N)c(=S)[nH]1
Ans. 1.01

Qu. Let me know recorded normalized growth for CC(C)(C)OC(=O)NCc1n[nH]c(=S)n1-c1ccccc1 , thanks.
Ans. 1.01

Qu. Specify normalized growth for CCSc1ncccc1C(=O)N[C@@H](CCSC)C(=O)OC and stop.
Ans. 1.01

---

# ASSAY: chemical genetic growth profiling, strain panel (AID 1159580)
# ASSAY SETUP: S. cerevisiae deletion strains, growth OD, locus YBL061C, strain skt5
In all, about 5,500 compounds went through this assay and about 2,000 (36%) were called active. About 18% were inconclusive and are not listed. Cut-off read from the data, not from the text of the source: active = normalized growth mostly below about 0.91 (no sharp cut-off); inconclusive = no clear call, values can overlap the other calls; inactive = mostly above about 0.92. The list shows a part of the results.
Your response should consist of one outcome taken from yes for active, no for inactive

# example entries with known answers
COMPOUND	LABEL CLASS
COc1ccc(-c2cc(=O)c3c(O)c(OC)c(O[C@H]4O[C@H](CO[C@@H]5O[C@@H](C)[C@H](O)[C@@H](O)[C@H]5O)[C@@H](O)[C@H](O)[C@H]4O)cc3o2)cc1	no
CC1(C)S[C@@H]2C(N3C(=O)[C@@H](c4ccccc4)NC3(C)C)C(=O)N2[C@H]1C(=O)O (stereo not given in full)	no
CCc1ccc2c(O)c3c(cc2c1C(=O)OC)C(=O)c1c(O)ccc(O)c1C3=O	no
COc1ccc(-c2cc(=O)c3c(O)c(OC)c(OC)c(OC)c3o2)cc1OC	no

// switching to the query compound
Qu. Name the outcome recorded for CC(C)c1cccc(O)c(=O)c1 in the assay.
Ans. yes

---

# ASSAY: chemical genetic growth profiling, strain panel (AID 1159580);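 note: tested at 20 µM; growth read once vehicle control cultures reached saturation at 30 °C; 1 = growth at the plate median or of vehicle wells; lower values mean less growth of the strain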
# ASSAY SETUP: S. cerevisiae deletion strains, growth OD, locus YPR119W, strain clb2, hits give low values
In all, about 5,500 compounds went through this assay and about 2,000 (36%) were called active. Not shown: some 18% with an inconclusive outcome. This is one part of the list.
MEASURED ENDPOINT: normalized growth
Would you mind answering with just the numeric figure?

Check out these entries, answers already filled in.
COMPOUND	MEASURED ENDPOINT	VALUE
C[C@]12CCC3C(CC[C@]4(O)C[C@@H](O)CC[C@]34C=O)[C@@]1(O)CCC2C1=CC(=O)OC1 (some centres undefined)	normalized growth	0.983
Nc1ccc(S(=O)(=O)Nc2ncccn2)cc1	normalized growth	0.983
CC12CCC3C(CCC4(O)CC(O)CCC34/C=N/NC(N)=O)C1(O)CCC2C1=CC(=O)OC1 (centres undefined)	normalized growth	0.983

// below: normalized growth requested for another compound
Qu. Query normalized growth for C[C@@H]1O[C@@H](O[C@H]2CC[C@]3(C=O)C4CC[C@]5(C)[C@@H](C6=CC(=O)OC6)CC[C@]5(O)C4CC[C@]3(O)C2)[C@H](O)[C@H](O)[C@H]1O (some centres undefined)
Ans. 1

---

# ASSAY: chemical genetic growth profiling, strain panel (AID 1159580);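 note: tested at 20 µM; growth read once vehicle control cultures reached saturation at 30 °C; 1 = growth at the plate median or of vehicle wells; lower values mean less growth of the strain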
# ASSAY SETUP: S. cerevisiae deletion strains, growth OD, locus YOR290C, strain snf2, hits give low values
Out of some 5,500 compounds screened, about 2,000 (36%) were called active. Roughly 18% stayed inconclusive and do not appear here. This is one part of the list.
hey, just use satisfied if measured normalized growth is less than 1, otherwise not satisfied

Record excerpt, results attached:
COMPOUND	LABEL CLASS
O=C(/C=C(\O)c1ccccc1)c1ccccc1O	satisfied
CC(C)(C)NCC(O)COc1cccc2c1CCCC2=O (stereo not drawn)	not satisfied

Next up:
Qu. Confirm or reject: normalized growth of C[C@H]1O[C@@H](O[C@H]2[C@@H](O)C[C@H](O[C@H]3[C@@H](O)C[C@H](O[C@H]4CC[C@]5(C)C6CC[C@]7(C)[C@@H](C8=CC(=O)OC8)CC[C@]7(O)C6CC[C@@H]5C4)O[C@@H]3C)O[C@@H]2C)C[C@H](O)[C@@H]1O (stereo partly drawn) lies strictly below 1
Ans. satisfied

---

# ASSAY: chemical genetic growth profiling, strain panel (AID 1159580);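 note: tested at 20 µM; growth read once vehicle control cultures reached saturation at 30 °C; 1 = growth at the plate median or of vehicle wells; lower values mean less growth of the strain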
# ASSAY SETUP: S. cerevisiae deletion strains, growth OD, locus YGL086W, strain mad1, hits give low values
The whole screen tested about 5,500 compounds, of which about 2,000 (36%) were called active. Not shown: some 18% with an inconclusive outcome. The list shows a part of the results.
Please note: normalized growth exactly at 1 is 0.0. Only values below 1 get 1.0.

COMPOUND	LABEL CLASS
CCCCCC(O)C1C(=O)OC(C)C(O)/C=C/C=C/C=C/C=C/C=C(\C)C(O)CC(O)CC(O)CC(O)CC(O)CC(O)CC1O (centres undefined)	0.0
O=C(O)CN(CCN(CC(=O)O)CC(=O)O)CC(=O)O	1.0
NC[C@H]1O[C@H](O[C@H]2[C@H](O)[C@@H](O[C@H]3O[C@H](CO)[C@@H](O)[C@H](N)[C@H]3O)[C@H](N)C[C@@H]2N)[C@H](N)[C@@H](O)[C@@H]1O	1.0
Cc1cc(N)c2ccccc2[n+]1CCCCCCCCCC[n+]1c(C)cc(N)c2ccccc21	1.0
O=c1c(O)cccc2c(C3Oc4cc(O)cc(O)c4CC3O)cc(O)c(O)c12 (centres undefined)	1.0

Could you now look at the following compound, please?
Qu. Consider the compound COc1cc(C(=O)O)cc(OC)c1OC . Is its normalized growth strictly less than 1?
Ans. 0.0
